// data source = patent US8940731B2

Biological target: cloned human H3 receptors (Homo sapiens, UniProt Q9Y5N1)
Construct: expressed in transfected cells
Sequence (Q9Y5N1 whole entry): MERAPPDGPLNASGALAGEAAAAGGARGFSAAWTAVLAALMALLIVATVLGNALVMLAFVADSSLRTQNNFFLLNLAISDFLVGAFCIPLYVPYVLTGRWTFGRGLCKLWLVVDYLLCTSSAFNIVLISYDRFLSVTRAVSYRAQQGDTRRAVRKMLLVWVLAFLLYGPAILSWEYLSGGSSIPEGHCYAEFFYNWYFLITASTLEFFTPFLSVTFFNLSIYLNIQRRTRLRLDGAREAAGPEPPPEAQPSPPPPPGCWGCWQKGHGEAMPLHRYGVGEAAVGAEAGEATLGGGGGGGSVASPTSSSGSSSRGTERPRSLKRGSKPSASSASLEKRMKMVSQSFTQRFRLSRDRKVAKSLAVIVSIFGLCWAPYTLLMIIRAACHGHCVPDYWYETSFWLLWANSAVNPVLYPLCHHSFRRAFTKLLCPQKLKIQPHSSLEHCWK
Assay: H3 Receptor Binding (Human)
Conditions: bromo-pyridine intermediates (Step A), value given in the synthesis; read-out: Assay 1 (Human H3): Ki
pKi: −log10 of the molar value.
Kindly return condition met if reported pKi is no lower than 7; return condition not met if it is lower.

STRUCTURE AS SMILES: O=C(c1cccc(Br)n1)N1CCCN(C2CC2)CC1
LABEL CLASS: condition not met
--
STRUCTURE AS SMILES: O=C(c1cccc(Br)n1)N1CCCN(C2CCC2)CC1
LABEL CLASS: condition met
--
STRUCTURE AS SMILES: CC(C)N1CCCN(C(=O)c2ccc(Br)cn2)CC1
LABEL CLASS: condition not met
--
STRUCTURE AS SMILES: CC(C)N1CCCN(C(=O)c2cccc(Br)n2)CC1
LABEL CLASS: condition not met
--
STRUCTURE AS SMILES: O=C(c1ccc(Br)cn1)N1CCCN(C2CCC2)CC1
LABEL CLASS: condition met
--
STRUCTURE AS SMILES: CC(C)N1CCN(C(=O)c2cccc(Br)n2)CC1
LABEL CLASS: condition not met
